experiment: in vitro; settings: human, hela cells, % viability
Label fulfilled when viability at 28.5 h, 10 µM < 90%; otherwise not fulfilled.

INSERT INTO results (compound, discrete_label) VALUES
  ('O=C(NCCN1CCN(Cc2ccccc2Cl)CC1)Nc1ccccc1 [CBK268039]', 'not fulfilled'),
  ('O=C(Nc1cccc2ccccc12)N1CCC(n2c(=O)[nH]c3ccccc32)CC1 [CBK149858]', 'fulfilled'),
  ('Cc1cc(NC(=O)CSc2nnc3ccc(-c4ccccc4)nn23)no1 [CBK287679]', 'not fulfilled'),
  ('CNC(=O)C1(Cc2ccccc2-c2cccs2)CCN(C(=O)c2cccc(OC)c2)CC1 [CBK285907]', 'fulfilled'),
  ('O=C(O)CNS(=O)(=O)c1cccc2nsnc12 [CBK261136]', 'not fulfilled'),
  ('Oc1ccc(C2N(O)C3CCCCC3N2O)cc1 (stereo not drawn) [CBK261715]', 'not fulfilled');

----------
test: in vitro; settings: human, hela cells, % viability
Measure: viability at 28.5 h, 10 µM (%)

INSERT INTO measurements (compound, measure, value_reported) VALUES
  ('Cc1ccc(CNc2c(-c3ccco3)nc3cnccn23)cc1', 'viability at 28.5 h, 10 µM', 89.3),
  ('CCCS(=O)(=O)c1ccc(NC(=O)Nc2ccc(Cl)cc2Cl)cc1', 'viability at 28.5 h, 10 µM', 76.1),
  ('Nc1cc(Cl)nc(SCC2CCCCC2)n1', 'viability at 28.5 h, 10 µM', 93.2),
  ('CC(C)NS(=O)(=O)c1ccc(OCC(=O)Nc2ccc3c(c2)OCCO3)cc1', 'viability at 28.5 h, 10 µM', 106),
  ('C[C@@H](c1ccccc1)n1c(=O)[nH]c2ncc(-c3cccc(C(=O)NCCN(C)C)c3)nc21', 'viability at 28.5 h, 10 µM', 103),
  ('CN1CCN(NC(=O)COc2cccc(C(F)(F)F)c2)CC1', 'viability at 28.5 h, 10 µM', 90.2),
  ('CSCCN1CCC(Oc2nccnc2OCc2cccnc2)CC1', 'viability at 28.5 h, 10 µM', 90.3),
  ('O=C1NC2(CCC2)C(=O)N1Cc1nn(-c2ccccc2)c2c1CCC2', 'viability at 28.5 h, 10 µM', 95.6),
  ('[N-]=[N+]=Nc1nc2c(N)ncnc2n1C1CC(O)C(CO)O1 (stereo not drawn)', 'viability at 28.5 h, 10 µM', 95.2);

----------
assay: in vitro; conditions: human, hela cells, % viability
Flag rule - viability at 28.5 h, 10 µM less than 90% flags fulfilled; the remaining entries get not fulfilled.

INSERT INTO results (compound, discrete_label) VALUES
  ('CC(C)n1ccnc1CN1CCn2nc(CNc3cnccn3)cc2C1', 'not fulfilled'),
  ('COc1ccc(CC(=O)N2CCCC(c3cccc(Cc4cccc(C)c4)n3)C2)cc1 (centres unmarked)', 'not fulfilled'),
  ('CC(C)NC(=O)N1CCN2C(=O)c3cc(-c4ccc(Cl)cc4)ccc3NC(=O)[C@H]2C1', 'fulfilled'),
  ('COc1cc(OC)c2c(c1)OC1(CCN(C(=O)C3CCCO3)CC1)CC2=O (centres unmarked)', 'not fulfilled');

----------
test system: C. trachomatis L2/434/Bu expressing GFP (CTL2-GFP); construct: L2/434/Bu GFP intracellular growth in HeLa cells; experiment: microbe, parasite or virus in culture; design: C. trachomatis total inclusion area by high-content imaging, normalised to DMSO; conditions: Chlamydia trachomatis, HeLa, 28.5 h; total inclusion area; read-out: % of control remaining
hey, just use MET if measured activity at 10 µM is less than 40%, otherwise NOT MET

INSERT INTO assay_data (compound, target_entity, discrete_label) VALUES
  ('COc1ccc(CCN(CCc2ccccc2)CC(O)COc2cccc3c2CCCC3)cc1 (centres unmarked) [CBK024506T]', 'C. trachomatis L2/434/Bu expressing GFP (CTL2-GFP)', 'NOT MET'),
  ('O=C1CC[C@@H](NCc2cccs2)[C@H](c2cc(F)cc(F)c2)N1 [CBK283129]', 'C. trachomatis L2/434/Bu expressing GFP (CTL2-GFP)', 'NOT MET'),
  ('O=C(NCCc1c[nH]c2ccc(Cl)cc12)c1ccc(Cl)cc1Cl [CBK159750]', 'C. trachomatis L2/434/Bu expressing GFP (CTL2-GFP)', 'MET'),
  ('N#Cc1c(Nc2cccc(C(F)(F)F)c2)sc(C(=O)c2ccc3c(c2)OCO3)c1N [CBK074399]', 'C. trachomatis L2/434/Bu expressing GFP (CTL2-GFP)', 'MET');

----------
assay: in vitro; conditions: human, hela cells, % viability
Measure: viability at 28.5 h, 10 µM (%)

INSERT INTO assay_data (compound, measure, value_units, value_reported) VALUES
  ('CSc1nc(NC(=O)CCCc2ccccc2)cc(N2CCNCC2)n1 [CBK050258T]', 'viability at 28.5 h, 10 µM', '%', 111),
  ('CCCn1ccnc1SCC(=O)Nc1ccc(CN2CCOCC2)cc1 [CBK306068]', 'viability at 28.5 h, 10 µM', '%', 87.8),
  ('c1ccc(CSc2ccc(-c3ccncc3)nn2)nc1 [CBK287638]', 'viability at 28.5 h, 10 µM', '%', 101),
  ('O=c1c(-c2ccco2)[n+]([O-])c2ccccc2n1OCc1ccccn1 [CBK266570]', 'viability at 28.5 h, 10 µM', '%', 91.8),
  ('O=C(Nc1ccc(-c2ccoc2)cc1C(=O)O)OCc1ccc([N+](=O)[O-])cc1 [CBK000141D]', 'viability at 28.5 h, 10 µM', '%', 98.9);

----------
Overview of recorded viability at 28.5 h, 10 µM for various compounds
assay: in vitro; conditions: human, hela cells, % viability
Measure: viability at 28.5 h, 10 µM (%)

INSERT INTO measurements (compound, value_reported) VALUES
  ('OCc1ccccc1-c1cn2ccnc2c(N[C@@H]2CCN(Cc3ccccc3)C2)n1', 104),
  ('Cc1oc(C2CC2)cc1C(=O)N1CCn2c(nnc2C2CC2)C1', 94.9),
  ('CC(=O)c1cc(C(=O)NCc2ccc(C)cc2)n(C)c1', 85.1),
  ('O=C(Cc1csc2ccccc12)Nc1cnc(-c2ccc(F)cc2)c(-c2ccoc2)n1', 93.3),
  ('Cn1cc(C(=O)N2CCc3ncc(Cl)cc3C2)ccc1=O', 100),
  ('CC(C)Cn1cnc2c(Cl)nc3ccccc3c21', 86.4),
  ('Brc1n[nH]c2nc(NCc3ccco3)ncc12', 91.6),
  ('COc1ccc(-c2noc(CNC(=O)Nc3ccc(F)cc3)n2)cc1OC', 97.2),
  ('c1ccc(Nc2nc(-c3ccc4c(c3)OCO4)cn3ccnc23)cc1', 92.2),
  ('CCOC(=O)c1cnn(C2CCCN(c3cccc(C#N)n3)C2)c1 (centres unmarked)', 81.5),
  ('CCc1noc(C)c1C(=O)Nc1cc(S(=O)(=O)N2CCCCC2)ccc1N(C)C', 85.4),
  ('CC(O)CN1CCN(c2nc(-c3ccncc3)nc3c2CCC3)CC1 (centres unmarked)', 90.3),
  ('Cc1cc(I)ccc1S(=O)(=O)NCc1ccccn1', 106),
  ('CC1(C)CC2CC(C)(CN2Cc2c(O)ccc3cc(-c4nc(-c5ccc(Br)cc5)cs4)c(=O)oc23)C1 (centres unmarked)', 103),
  ('CC(C)(CNC(=O)CN1CCOCC1)NC(=O)OC(C)(C)C', 88.7),
  ('c1ccc(-c2cn3ccnc3c(NCC3CCOCC3)n2)cc1', 99.1),
  ('c1ccc(Oc2cccc(CN3CCOCC3)c2)cc1', 95.3),
  ('CNC(=O)CSc1nccc(C(F)(F)F)n1', 101),
  ('O=C(N/N=C\c1cccc(OC(=O)c2cccs2)c1)c1ccc([N+](=O)[O-])cc1', 77.3),
  ('Cc1ccc(O)c(Nc2ncnc3ccc(Br)cc23)c1 [CBK269028C]', 98.3);

----------
tested on: CTL2-GFP (C. trachomatis L2/434/Bu, GFP-expressing); construct: L2/434/Bu, GFP-expressing; assay: microbe, parasite or virus in culture; set-up: C. trachomatis growth in HeLa, dose-response, mean of bulk GFP fluorescence and imaged total inclusion area; settings: Chlamydia trachomatis, HeLa, 28.5 h; mean of GFP and inclusion area
Measure: IC50 (µM)

INSERT INTO assay_data (compound, value_units, value_reported) VALUES
  ('O=C(CSc1nnc(-c2cccnc2)o1)c1ccccc1 [c35e]', 'µM', 3.71),
  ('CC(Cc1nc(-c2nccn2C)cs1)n1cc(Cl)cn1 (stereo not drawn) [c14e]', 'µM', 1.03),
  ('CC(=O)N1CCc2sccc2C1c1ccccc1NCc1ccoc1 (stereo not drawn) [c28e]', 'µM', 2.6);
